# Lookup of reported DC50 keyed by entry
- experimental system: Androgen Receptor (AR) (Homo sapiens)
- Construct: endogenous in cells; host or cells: VCaP
- procedure text: AR immunofluorescence staining, high content imager, VCaP cells
- Type: cell-based
- assay context: AR degradation by immunofluorescence
measured endpoint: DC50

[[record]]
molecule = "COc1cc(O[C@H]2C(C)(C)[C@H](NC(=O)c3ccc(N4CCC(CN5CCN(c6ccc(C(=O)N[C@H]7CCC(=O)NC7=O)nc6)CC5)CC4)cc3)C2(C)C)ccc1C#N"
test_value = "< 1 nM"

[[record]]
molecule = "N#Cc1ccc(O[C@H]2CC[C@H](NC(=O)c3ccc(N4CCC(CN5CCN(c6ccc(C(=O)NC7CCC(=O)NC7=O)nc6)CC5)CC4)nn3)CC2)cc1Cl (stereo partly drawn)"
test_value = "< 1 nM"

[[record]]
molecule = "Cc1cc(O[C@H]2C(C)(C)[C@H](NC(=O)c3ccc(N4CCO[C@H](CN(C(C)C)[C@H]5C[C@@H](Oc6ccc(C(=O)N[C@H]7CCC(=O)NC7=O)c(F)c6)C5)C4)cc3)C2(C)C)cc(C)c1C#N"
test_value = "< 1 nM"


----------
- experimental system: androgen receptor (Homo sapiens, UniProt P10275)
- Construct: endogenous in cells; host or cells: VCaP
- Sequence (P10275 whole entry): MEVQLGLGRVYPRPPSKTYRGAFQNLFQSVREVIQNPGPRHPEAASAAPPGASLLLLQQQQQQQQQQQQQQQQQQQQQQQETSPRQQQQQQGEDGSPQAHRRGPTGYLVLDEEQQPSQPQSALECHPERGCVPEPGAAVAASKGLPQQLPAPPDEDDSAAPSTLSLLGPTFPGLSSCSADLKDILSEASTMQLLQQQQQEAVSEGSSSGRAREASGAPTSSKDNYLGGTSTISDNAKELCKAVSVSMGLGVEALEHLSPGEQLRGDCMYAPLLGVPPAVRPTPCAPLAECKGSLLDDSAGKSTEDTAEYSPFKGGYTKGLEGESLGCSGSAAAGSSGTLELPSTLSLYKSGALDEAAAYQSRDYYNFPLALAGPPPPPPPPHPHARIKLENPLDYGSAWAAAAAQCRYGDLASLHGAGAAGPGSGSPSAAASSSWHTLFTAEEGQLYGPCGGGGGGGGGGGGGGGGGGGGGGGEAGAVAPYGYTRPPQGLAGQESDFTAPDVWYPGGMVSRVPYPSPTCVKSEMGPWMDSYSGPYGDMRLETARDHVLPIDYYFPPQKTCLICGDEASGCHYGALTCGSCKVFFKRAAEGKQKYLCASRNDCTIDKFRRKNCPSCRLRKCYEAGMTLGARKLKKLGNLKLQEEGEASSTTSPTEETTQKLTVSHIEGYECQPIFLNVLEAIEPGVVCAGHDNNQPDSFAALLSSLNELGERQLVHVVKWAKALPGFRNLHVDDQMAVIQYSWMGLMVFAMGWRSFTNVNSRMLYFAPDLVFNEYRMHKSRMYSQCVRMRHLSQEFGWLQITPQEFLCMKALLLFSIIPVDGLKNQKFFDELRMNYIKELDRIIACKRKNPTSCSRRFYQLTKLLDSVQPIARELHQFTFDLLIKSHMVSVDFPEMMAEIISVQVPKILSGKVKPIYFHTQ
- procedure text: AR ELISA assay (PathScan AR Sandwich ELISA), VCaP cells
- Format: cell-based
- assay context: drug treatment 5 hours
measured endpoint: DC50

[[record]]
compound = "CC1(C)[C@H](NC(=O)c2ccc(N3CCC(CN4CCN(c5ccc(F)c(C(=O)NC6CCC(=O)NC6=O)c5)CC4)CC3)cc2)C(C)(C)[C@H]1Oc1ccc(C#N)c(Cl)c1 (some centres unmarked) [Compound 8]"
measured_endpoint = "DC50"
test_value = "< 1 nM"

[[record]]
compound = "Cc1cc(O[C@H]2C(C)(C)[C@H](NC(=O)c3cnc(N4CCC(CN(C(C)C)[C@H]5C[C@H](Oc6cccc(C(=O)NC7CCC(=O)NC7=O)c6)C5)CC4)cn3)C2(C)C)cc(C)c1C#N (some centres unmarked) [Compound 15]"
measured_endpoint = "DC50"
test_value = "1 to 10 nM"

[[record]]
compound = "Cc1cc(O[C@H]2C(C)(C)[C@H](NC(=O)c3ccc(N4CCC(CN5CCN(c6ccc(F)c(C(=O)NC7CCC(=O)NC7=O)c6)CC5)CC4)cc3)C2(C)C)cc(C)c1C#N (some centres unmarked) [Compound 6]"
measured_endpoint = "DC50"
test_value = "< 1 nM"

[[record]]
compound = "CC1(C)[C@H](NC(=O)c2ccc(N3CCC(CN4CCN(c5ccc(C(=O)NC6CCC(=O)NC6=O)cc5)CC4)CC3)nn2)C(C)(C)[C@H]1Oc1ccc(C#N)c(Cl)c1 (some centres unmarked) [Compound 3]"
measured_endpoint = "DC50"
test_value = "< 1 nM"

[[record]]
compound = "CC(C)N(CC1CCN(c2cnc(C(=O)N[C@H]3C(C)(C)[C@H](Oc4ccc(C#N)c(Cl)c4)C3(C)C)cn2)CC1)[C@H]1C[C@H](Oc2ccc(C(=O)NC3CCC(=O)NC3=O)cc2)C1 (some centres unmarked) [Compound 16]"
measured_endpoint = "DC50"
test_value = "1 to 10 nM"


----------
In this section we review reported DC50 values for a set of compounds.
- experimental system: Androgen Receptor (AR) (Homo sapiens, UniProt P10275)
- Construct: endogenous in cells; host or cells: VCaP
- procedure text: AR immunofluorescence staining, high content imager, VCaP cells
- Assay type: cell-based
- assay context: AR degradation by immunofluorescence
measured endpoint: DC50

[[record]]
compound = "Cc1cc(O[C@H]2C(C)(C)[C@H](NC(=O)c3ccc(N4CCC(CN5CCN(c6ccc(C(=O)N[C@H]7CCC(=O)NC7=O)nc6)CC5)CC4)cc3)C2(C)C)cc(C)c1C#N [Compound 41]"
test_value = "< 1 nM"

[[record]]
compound = "Cc1cc(O[C@H]2C(C)(C)[C@H](NC(=O)c3ccc(N4CCC(CN5CCOCCCCOc6ccc(C(=O)NC7CCC(=O)NC7=O)cc6O[C@H]6C[C@H]5C6)CC4)cc3)C2(C)C)cc(C)c1C#N (stereo partly drawn) [Compound 74]"
test_value = "< 1 nM"

[[record]]
compound = "N#Cc1ccc(O[C@H]2CC[C@H](NC(=O)c3ccc(N4CCC(CN5CCN(c6ccc(C(=O)NC7CCC(=O)NC7=O)nn6)CC5)CC4)nn3)CC2)cc1Cl (stereo partly drawn) [Compound 28]"
test_value = "< 1 nM"


Data provenance: patent US12427144B2
